I'd appreciate it if you could supply TGI values for the items below.
Tested on: SNB-75 CNS
Assay: NCI tumour cell line growth inhibition, 48 h

Q: Which TGI value is on record for CC(C)c1ccc2[nH]c(O)c(C3=Nc4ccccc4C3=O)c2c1 ?
Ans: 9.36 µM

Q: What value of TGI has been reported for the following compound? C/C(=C\CC[C@]1(C)OC(C)(C)OC1CC/C(C)=C/CO[Si](c1ccccc1)(c1ccccc1)C(C)(C)C)CC/C=C/CO[Si](C)(C)C(C)(C)C (some centres undefined)
Ans: > 100 µM

Q: Consider the compound Cc1cccc2c1C/C(=C1\CCc3c(C)cccc31)C2=O and give its measured TGI.
Ans: > 100 µM

Q: GET /values?readout=TGI&item= COC(=O)[C@@H](C)C[C@H](Cc1ccccc1)NC(=O)c1csc([C@@H](C[C@H](C(C)C)N(C)C(=O)C2(NC(=O)[C@H]3CCCCN3C)CC2)OC(C)=O)n1
Ans: > 33.3 µM

###

What TGI was measured for each of the following?
System: HCC-2998 colon
Assay: NCI tumour cell line growth inhibition, 48 h

Q: So what's the measured TGI for this one? COc1cc(C(=O)CC2(O)C(=O)Nc3c(Cl)cc(Cl)cc32)ccc1O (centres undefined)
Ans: 88.7 µM

Q: Give the measured TGI of c1ccc2c3c([nH]c2c1)C1(CCCCC1)c1c([nH]c2ccccc12)C31CCCCC1 .
Ans: 85.6 µM

Q: Bench note: what TGI did Cc1cc(-c2nc3cc(O)ccc3s2)ccc1N show?
Ans: > 100 µM

Q: Using the record for COC(=O)CC1(O)C(/C=C/c2ccccc2)C(C(=O)OC)C(=O)C(C(=O)OC)C1C(=O)OC (centres undefined) , report its TGI.
Ans: > 100 µM

Q: Name the recorded TGI for O=C(/C=C1/NC(=O)CS1)Nc1ccccc1 .
Ans: > 100 µM

Q: Which value of TGI has been reported for COc1cccc(C[C@H]2COC(=O)[C@]2(O)Cc2cccc(OC)c2)c1 in the records?
Ans: > 100 µM

Q: For the compound shown here, OC(CNC1CCCC1)Cn1c2ccccc2c2ccccc21 (centres undefined) , give the reported TGI.
Ans: > 100 µM

Q: I would be grateful if you could share the reported TGI for CCOC(=O)NC(=O)c1cn(CCN2CCN(C(=O)NCCCCCCNC(=O)N3CCN(CCn4cc(C(=O)NC(=O)OCC)c(=O)n(CCN(CC)CC)c4=O)CC3)CC2)c(=O)n(CCC(CC)CC)c1=O .
Ans: > 100 µM

Q: Any idea what TGI was measured for CCOC(=O)C#Cc1c(CC(=O)OCC)nnn1[C@H]1O[C@@H](CO)[C@@H]2OC(C)(C)O[C@@H]21 ?
Ans: 31.8 µM

Q: Returns the measured TGI for the input compound. Input: C=CC(=O)Nc1cccc(C)c1Nc1ncc2cc(-c3c(Cl)c(OC)cc(OC)c3Cl)ccc2n1
Ans: 31.9 µM

Q: For the compound CC[C@](C)(O)C(=O)O[C@H]1C(=O)O[C@@H]2C[C@H]3C(C)=C[C@H](O)[C@@H](O)[C@]3(C)[C@H]3[C@@]4(O)OC[C@]32[C@@H]1[C@@H](C)[C@H]4O , what TGI is on record?
Ans: 71.4 µM

Q: Field request: TGI | item: O=C(CN1C(=O)c2ccccc2C1=O)C(O)CN1C(=O)c2ccccc2C1=O (centres undefined)
Ans: > 100 µM

Q: Would you mind telling me what TGI value was observed for Cc1ccc(/C=C2\CCCC\C2=N\O)cc1 ?
Ans: > 100 µM

Q: What does the data say about its TGI? Entry: N#CC(C#N)=C1SCC(=O)CS1
Ans: > 100 µM

Q: Name the recorded TGI for C=C1C(=O)O[C@H]2[C@H]1CC/C(CNS(=O)(=O)c1cccc3ccccc13)=C\CC[C@@]1(C)O[C@@H]21 .
Ans: 4.87 µM

Q: I am curious: what TGI value has been reported for CC(=O)OCC1OC(n2c(C)c(C(C)=O)c(-c3cccc4ccccc34)c(C#N)c2=S)C(OC(C)=O)C(OC(C)=O)C1OC(C)=O (centres undefined) ?
Ans: > 100 µM

Q: Give the measured TGI of CS/C(c1ccccc1)=[N+](/C)[O-] .
Ans: > 100 µM

Q: Which TGI is listed for CCCCc1ccc(Nc2nc(N)c3ncn(COCCO)c3n2)cc1 ?
Ans: 48.9 µM

Q: Given [O-]c1c[n+](CC[n+]2cc([O-])on2)no1 , state its recorded TGI.
Ans: > 100 µM

###

Test system: RXF 393 renal
Assay: NCI tumour cell line growth inhibition, 48 h
Assignment: determine reported log10 of TGI for the given compounds.
Hi team, quick reminder: these entries are log10 of TGI (µM).

Q: Param item = O=C(/C=C/c1ccc(C(F)(F)F)cc1)c1ccc(Nc2nc(NCCO)nc(N3CCOCC3)n2)cc1 ; retrieve measured log10 of TGI.
Ans: 0.51

Q: Quick one: log10 of TGI of O=C(N/N=C\c1ccc(N(CCCl)CCCl)cc1Cl)c1cccnc1 ?
Ans: 1.72

Q: Value lookup for log10 of TGI; key = FC(F)(F)C1(C(F)(F)F)O[SiH]2(OC(C(F)(F)F)(C(F)(F)F)c3ccccc32)c2ccccc21
Ans: 1.49

Q: Form field: reported log10 of TGI of C[CH2][Sn]([Cl])([Cl])[CH2]C
Ans: 1.51

Q: Request the reported log10 of TGI associated with COc1cc(/C=C/C(=O)c2c(C)n([O-])c3ccc(Cl)cc3[n+]2=O)cc(OC)c1OC
Ans: 1.48

Q: Could you share which log10 of TGI value was measured for NCCCCN(Cc1nc2ccccc2[nH]1)[C@H]1CCCc2cccnc21 ?
Ans: 1.82

Q: Suppose we examine the compound Cc1nn(-c2nc3ccccc3[nH]2)c2c1C(c1ccc3c(c1)OCO3)CC(=O)N2 (configuration not stated) ; what log10 of TGI value has been reported?
Ans: 0.80

Q: Data request, read-out log10 of TGI, for OC(CNC1CCCC1)Cn1c2ccccc2c2ccccc21 (configuration not stated)
Ans: 1.72

Q: Name the recorded log10 of TGI for CN1CCN(CCCCN2c3ccccc3Sc3ccc(N=[N+]=[N-])cc32)CC1 .
Ans: 1.28

Q: Fill in: log10 of TGI of CC[N+]1(C)CCC(O)(/C=C/c2ccc(Cl)cc2)C(C(=O)/C=C/c2ccc(Cl)cc2)C1 (configuration not stated) is ___
Ans: 1.40

Q: // log10 of TGI lookup, key: CN(C)c1ccc(O)c2c1C[C@H]1C[C@H]3[C@H](N(C)C)C(=O)C(C(N)=O)=C(O)[C@@]3(O)C(=O)C1=C2O
Ans: 1.84

Q: Record request: log10 of TGI value, item N#CC(NNC(=O)c1ccccc1O)c1ccccc1 (configuration not stated)
Ans: 1.79

Q: For the compound N#CC1=C(N)Oc2c(sc3c(F)cccc23)C1c1ccc(F)cc1 (configuration not stated) , what log10 of TGI is on record?
Ans: 0.80

Q: Give the measured log10 of TGI of [C-]#[N+]C(C)(C)C[C@H]1CC(C)C2CCC(C)C3([N+]#[C-])CCC(=C)C1[C@H]23 (some centres not stated) .
Ans: 1.02

###

Assignment: determine reported TGI for the given molecules.
Tested on: SNB-75 CNS
Test: NCI tumour cell line growth inhibition, 48 h
Unit µM implied. Number only.

Q: Record request: TGI value, item Cc1cccc2c1C(=O)OC2(C)c1cccc2ccccc12 (stereo not drawn)
Ans: 87.7

Q: Value lookup for TGI; key = C[CH2][Sn]([CH2]C)([O]C(=O)c1cccc(F)c1)[O][Sn]([CH2]C)([CH2]C)[O]C(=O)c1cccc(F)c1
Ans: 31.9

Q: Data request, read-out TGI, for COc1cc2cccc(NC(=O)c3cc(OC)c(OC)c(OC)c3Br)c2cc1OC
Ans: 74.8

Q: # query: TGI of entry O=C1C(=O)c2ccccc2C(O)=C1CCCCCCCCC1CCCCC1
Ans: 22.9

Q: I am curious: what TGI value has been reported for COc1cccc2c(=O)c3c(sc12)c(NCCN(C)C)nc1ccccc13 ?
Ans: 8.53

Q: Recorded TGI for Oc1ccc(N=Nc2ccc(N=Nc3ccccc3)cc2)cc1 , please?
Ans: 47.8

Q: Endpoint output: TGI of COc1cc(/C=C2\CC3C4CC[C@H]5C[C@@H](O)CC[C@]5(C)C4CC[C@]3(C)C2=O)cc(OC)c1OC (stereo partly drawn) . Value?
Ans: 79.7

Q: Fill in: TGI of CCCCCCCCNC(=S)/N=C/c1c(O)c2ccccc2oc1=O is ___
Ans: 34.2

Q: Requested field: TGI. Item: COC(=O)c1c(O)ccc2c1c1c(n2-c2ccc(OC)cc2)C(=O)c2ccccc2C1=O
Ans: 51.5

Q: Dear colleague, I am looking for the recorded TGI of the following molecule: Cc1nn(-c2nc3ccccc3[nH]2)c2c1C(c1ccc3c(c1)OCO3)CC(=O)N2 (stereo not drawn)
Ans: 8.09
